Assay: qHTS for Inhibitors of human tyrosyl-DNA phosphodiesterase 1 (TDP1): qHTS in cells in absence of CPT; note: nearly all actives have a fitted effect of over 55% in size
Conditions: DT40 Tdp1-/- hTDP1 cells, no CPT, ATP luminescence, 48 h
About 64,000 (15%) of roughly 420,000 compounds were called active. Roughly 27% stayed inconclusive and do not appear here. Calls come from the whole dose curve; as a rule, active = well fitted inhibition curve with a large enough effect; inconclusive = small, poorly fitted or top-dose-only effect; inactive = flat fitted curve, though single readings scatter. Not all results are given here.
// allowed return values: active, inactive

For CS(=O)(=O)c1cccc(-c2ccc3nncn3c2)c1 , what call appears in the results of this test?
inactive

For Cc1cc(C)cc(NC(=O)NC2CCCCCCC2)c1 , what call appears in the results of this test?
inactive

For c1ccc2c(CNn3cnnc3)cccc2c1 , what call appears in the results of this test?
inactive

For CC(C)c1ccc(NC(=O)NC2CCCCC2)cc1 , what call appears in the results of this test?
active

For O=C(Nc1cccc(OCC(=O)N2CCOCC2)c1)C1CCCCC1 , what call appears in the results of this test?
inactive

For CS(=O)(=O)N(CC(=O)N1CCCC1)Cc1ccccc1 , what call appears in the results of this test?
inactive

For CC1CCCCN1CCCNC(=O)Cn1ncc2c([nH]c3ccccc32)c1=O (configuration not stated) , what call appears in the results of this test?
inactive

For c1ccc(NCc2cccc3ccccc23)nc1 , what call appears in the results of this test?
inactive

For CC(C)(C)NS(=O)(=O)c1ccc(NC(=O)NC2CCCCC2)cc1 , what call appears in the results of this test?
inactive

For CCOc1cc(C)ccc1OCc1nnc(SCC(=O)Nc2cccc(C(=O)O)c2)n1-c1ccccc1 , what call appears in the results of this test?
inactive

For O=C(CCc1nc(CN2CCN(S(=O)(=O)c3ccc(F)cc3)CC2)no1)N1CCCCC1 , what call appears in the results of this test?
inactive

For COc1cc(NS(=O)(=O)c2ccc(NC(=O)c3ccc([N+](=O)[O-])cc3)cc2)ncn1 , what call appears in the results of this test?
inactive

For O=C(NC1CCCC1)C1CC(=O)N(c2ccc(F)cc2)C1 (configuration not stated) , what call appears in the results of this test?
inactive

For CCNC(=S)NNC(=O)c1ccc2ncccc2c1 , what call appears in the results of this test?
inactive

For Cc1ccc(C(=O)OCc2nc(N)nc(Nc3ccccc3C)n2)cc1 , what call appears in the results of this test?
inactive

For CCCCNS(=O)(=O)c1ccc(S(=O)(=O)n2cnc3ccccc32)cc1 , what call appears in the results of this test?
inactive

For CCc1ccc(NC(=O)c2ccc(Cn3cc([N+](=O)[O-])cn3)cc2)cc1 , what call appears in the results of this test?
inactive

* * *

Test: qHTS for Inhibitors of human tyrosyl-DNA phosphodiesterase 1 (TDP1): qHTS in cells in absence of CPT; note: nearly all actives have a fitted effect of over 55% in size
Conditions: DT40 Tdp1-/- hTDP1 cells, no CPT, ATP luminescence, 48 h
The campaign covered roughly 420,000 compounds. About 64,000 (15%) were called active. About 27% were inconclusive and are not listed. Calls follow the shape of the dose curve; as a rule, active = well fitted inhibition curve with a large enough effect; inconclusive = small, poorly fitted or top-dose-only effect; inactive = flat fitted curve, though single readings scatter. These entries were drawn from the full list.
// allowed return values: active, inactive

For O=C(Nc1ccccc1F)c1ccccc1-c1ccccc1 , what call appears in the results of this test?
inactive

For O=C(C1CCCN(S(=O)(=O)c2cccc3nonc23)C1)N1CCN(c2ccccc2F)CC1 (configuration not stated) , what call appears in the results of this test?
active

For CC(C)N(c1ccccc1)c1ncnc(NCCC(=O)O)c1[N+](=O)[O-] , what call appears in the results of this test?
inactive

For CC(=O)c1cccc(NC(=O)C2CCCN(S(=O)(=O)c3cccc4nonc34)C2)c1 (configuration not stated) , what call appears in the results of this test?
inactive

For Nc1c(Cl)cc(-c2csc(N3CCCC3c3nc4cc(Cl)c(Cl)cc4n3CCOCCO)n2)cc1Cl (configuration not stated) , what call appears in the results of this test?
inactive

For CN(Cc1c(F)cccc1Cl)S(=O)(=O)c1cccs1 , what call appears in the results of this test?
inactive

For O=C(C1CCC1)N1CCN(S(=O)(=O)c2ccc([N+](=O)[O-])cc2)CC1 , what call appears in the results of this test?
inactive

For CC1(c2nnc(-c3ccncc3)o2)CC(c2cccnc2)=NO1 (configuration not stated) , what call appears in the results of this test?
inactive

For Cc1cc(C(F)(F)F)n2ncc(-c3ccccc3)c2n1 , what call appears in the results of this test?
inactive

For CCc1ccc(-c2nnn(Cc3nc4ccccc4s3)n2)cc1 , what call appears in the results of this test?
inactive

For COc1ccccc1-c1nc(SC)n[nH]1 , what call appears in the results of this test?
inactive

For COC(=O)c1cc2nc(-c3ccccc3)cc(C(F)(F)F)n2n1 , what call appears in the results of this test?
inactive

For CC(=O)OCCN(CCCn1c(-c2ccncc2)nc2ccccc21)c1nc(-c2ccc(C)cc2)cs1 , what call appears in the results of this test?
inactive

For CCOC(=O)c1c(C)[nH]c(C(=O)OCC(=O)N2CCCC2=O)c1C , what call appears in the results of this test?
inactive

For COc1cc2c(cc1OC)C(c1ccncc1)CC(=O)N2 (configuration not stated) , what call appears in the results of this test?
inactive

For CC1CCCCN1C(=S)NCc1ccccc1 (configuration not stated) , what call appears in the results of this test?
inactive

For NC(=O)CC[C@@H]1NC(=O)[C@@H]2CCCN2C(=O)c2cc([N+](=O)[O-])cc(F)c2NCCC[C@@H](C(N)=O)NC1=O , what call appears in the results of this test?
inactive

For c1ccc(C2=Nc3cccc4cccc(c34)N2)cc1 , what call appears in the results of this test?
active

For CC(=O)NC(=S)Nc1ccc(NC(=O)c2cccnc2)cc1 , what call appears in the results of this test?
inactive

For COc1ccccc1-c1n[nH]nc1C1=CC(=O)CC(C)(C)C1 , what call appears in the results of this test?
inactive

For CC(/C=C/c1ccccc1)=N\NC(=O)C1CC1(C)c1ccccc1 (configuration not stated) , what call appears in the results of this test?
active

For Cc1noc(C)c1NC(=O)Nc1ccc2c(c1)C(=O)N([C@H](C)CO)C[C@H](C)[C@@H](CN(C)C(=O)Nc1ccc(C(F)(F)F)cc1)O2 , what call appears in the results of this test?
inactive

For CC(C)Oc1ccc(C2NC(=O)NC2=O)cc1 (configuration not stated) , what call appears in the results of this test?
inactive

For O=C(O)c1ccc(/C=N/NC(=S)NCc2ccccc2)cc1 , what call appears in the results of this test?
inactive

For CCN(CC)C(=O)c1nc[nH]c1C(=O)N(C)Cc1ccccc1 , what call appears in the results of this test?
inactive

For O=C(c1ccc(O)cc1)c1ccc(C(=O)O)c(C(=O)O)c1 , what call appears in the results of this test?
inactive

For Cc1ccc(-c2csc(N3CCN(c4cc5c(cc4Cl)nc(-c4ccncc4)n5CCOCCO)CC3)n2)cc1 , what call appears in the results of this test?
active

For O=C(Nc1ccccc1Cl)c1ccc2nsnc2c1 , what call appears in the results of this test?
inactive

For Cc1cc(=O)oc2c(C)c(OCC(=O)NCCc3ccc(S(N)(=O)=O)cc3)ccc12 , what call appears in the results of this test?
inactive

For CC(OC(=O)/C=C/c1ccccc1)C(=O)NC1CCCCC1C (configuration not stated) , what call appears in the results of this test?
inactive

For COc1ccc(C2CC(=O)Nc3cc(C)c(C)cc32)c(OC)c1OC (configuration not stated) , what call appears in the results of this test?
active

For O=C(Nc1ccccc1Cl)Nn1cnnc1 , what call appears in the results of this test?
inactive

For CCCCCCCCCCCCCCCC(=O)OC/C=C(C)/C=C/C=C(C)/C=C/C1=C(C)CCCC1(C)C , what call appears in the results of this test?
inactive

For O=C(C1CCCN(S(=O)(=O)c2ccc([N+](=O)[O-])cc2)C1)N1CCCCC1 (configuration not stated) , what call appears in the results of this test?
active

For COc1ccc(-c2cc(C(F)(F)F)n3nc(-c4ccccc4)cc3n2)cc1OC , what call appears in the results of this test?
active

For CC1(C)CC(=O)C(N=Nc2ccc(S(=O)(=O)N3CCCCCC3)cc2)=C(O)C1 , what call appears in the results of this test?
inactive

For COc1ccc(COC(=O)NC(C(=O)O)c2ccccc2)cc1 (configuration not stated) , what call appears in the results of this test?
inactive
